Readings of logD for the listed molecules
Test: Lipophilicity, LogD at pH 7.4
Assay type: physicochemical
Conditions: buffer

Use the examples below as a reference point.
C1CC2(CCN1)OOC1(O2)C2CC3CC(C2)CC1C3.Cl (stereo unspecified) :: 0.25
O=C(O)c1ccccc1C(=O)N1CCC2(CC1)OOC1(O2)C2CC3CC(C2)CC1C3 (stereo unspecified) :: 1.2
c1cc(CN2CCC3(CC2)OOC2(O3)C3CC4CC(C3)CC2C4)ccn1 (stereo unspecified) :: 2.7
CCS(=O)(=O)CCN1CCC2(CC1)OOC1(O2)C2CC3CC(C2)CC1C3 (stereo unspecified) :: 2.3
c1ccc(CN2CCC3(CC2)OOC2(O3)C3CC4CC(C3)CC2C4)cc1 (stereo unspecified) :: 3.5

logD reading for CN1CCN(C(=O)N2CCC3(CC2)OOC2(O3)C3CC4CC(C3)CC2C4)CC1 (stereo unspecified) : 2.6
